# system_name: pY641-STAT6 in PBMC (Homo sapiens)
# Construct: Cryopreserved Peripheral Blood Mononuclear Cells (PBMC) are from AllCells; host or cells: cryopreserved PBMC
# Sequence (P42226 whole entry): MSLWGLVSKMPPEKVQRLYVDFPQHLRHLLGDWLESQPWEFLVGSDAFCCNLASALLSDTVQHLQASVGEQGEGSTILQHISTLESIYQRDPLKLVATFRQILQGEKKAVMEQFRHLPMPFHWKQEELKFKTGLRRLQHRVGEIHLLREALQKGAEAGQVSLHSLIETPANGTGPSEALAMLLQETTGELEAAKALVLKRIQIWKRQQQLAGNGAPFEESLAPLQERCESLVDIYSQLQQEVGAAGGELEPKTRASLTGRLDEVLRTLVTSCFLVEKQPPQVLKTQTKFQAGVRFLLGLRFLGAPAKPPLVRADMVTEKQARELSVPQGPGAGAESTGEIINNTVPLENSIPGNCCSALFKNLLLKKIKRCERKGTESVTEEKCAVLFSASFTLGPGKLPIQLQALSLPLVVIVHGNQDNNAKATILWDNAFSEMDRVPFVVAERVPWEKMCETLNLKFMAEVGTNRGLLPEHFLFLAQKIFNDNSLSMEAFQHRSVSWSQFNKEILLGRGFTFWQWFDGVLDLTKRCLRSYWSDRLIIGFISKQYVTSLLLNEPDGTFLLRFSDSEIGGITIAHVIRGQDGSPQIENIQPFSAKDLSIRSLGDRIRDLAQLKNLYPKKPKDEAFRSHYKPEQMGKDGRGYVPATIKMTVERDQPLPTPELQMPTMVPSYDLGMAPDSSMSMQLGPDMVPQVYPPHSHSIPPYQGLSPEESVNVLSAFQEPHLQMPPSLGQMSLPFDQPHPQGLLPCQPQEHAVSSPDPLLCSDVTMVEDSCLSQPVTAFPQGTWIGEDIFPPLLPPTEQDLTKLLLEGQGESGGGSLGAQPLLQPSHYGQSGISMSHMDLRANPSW
# assay: MSD-pSTAT-PBMC Assay (pSTAT6, IL-4 stimulated)
# Assay type: cell-based
# conditions_used: STAT6, PBMC, compound 3 hrs, then 1 ng/mL IL-4 for 10 min; Table 115
pIC50: −log10 of the molar value.
reported_property: pIC50

Illustrative cases are given below, each with its answer.
// query For the compound shown here, CC(C)(CO)C(=O)SCCOP(=O)(Oc1ccccc1)C(F)(F)c1ccc2sc(C(=O)N[C@H]3CCCC[C@H]4CC[C@@H](C(=O)N5C[C@@H](C#N)[C@H](c6cc[nH]c(=O)c6)C5)N4C3=O)cc2c1 (single isomer, unassigned) , give the reported pIC50.
// result < 5.52

// query Entry CCCOC(=O)[C@H](C)NP(=O)(Oc1ccccc1)[C@@H](F)c1ccc2sc(C(=O)N[C@H]3CCCC[C@H]4CC[C@@H](C(=O)N5C(=O)N(c6ccc(C(F)F)nc6)C(=O)C56CC6)N4C3=O)cc2c1 (some centres unmarked) please
// result < 5.52

// query Entry CCCOC(=O)[C@H](C)NP(=O)(Oc1ccccc1)[C@@H](F)c1ccc2sc(C(=O)N[C@H]3CCCC[C@H]4CC[C@@H](C(=O)N5C(=O)N(c6cnccc6C)C(=O)C56CC6)N4C3=O)cc2c1 (some centres unmarked) please
// result > 7.00

// query Entry CCCOC(=O)[C@H](C)NP(=O)(Oc1ccccc1)C(F)c1ccc2ccc(C(=O)N[C@H]3CCCC[C@H]4CC[C@@H](C(=O)N5CCC(c6cccnc6)C5)N4C3=O)cc2c1 (some centres unmarked) please
// result > 7.00

Pending compound:
// query For the compound shown here, CCCCOC(=O)[C@H](C)NP(=O)(Cc1ccc2ccc(C(=O)N[C@H]3CCCC[C@H]4CC[C@@H](C(=O)N5CC(c6ccccc6)CC56CC6)N4C3=O)cc2c1)Oc1ccccc1 (some centres unmarked) , give the reported pIC50.
// result 5.52 to 6.00
